Listing of recorded TGI by entry.
- System: MDA-MB-231 breast
- Experimental Details: NCI tumour cell line growth inhibition, 48 h

# return recorded TGI for input CC(C)(C)OC(=O)NC1CCCC1C(O)(C1=CCCC1)C1=CCCC1 (stereo unspecified)
> 100 µM

====

- Tested on: NCI-H522 lung
- Experimental Details: NCI tumour cell line growth inhibition, 48 h
Measure: TGI

COC(=O)c1c(O)ccc2c1c1c(n2Cc2ccc(OC)cc2)C(=O)c2ccccc2C1=O :: 17.1 µM

# return recorded TGI for input O=[N+]([O-])c1ccc(Sc2c3ccccc3nc3ccccc23)cc1
> 100 µM

# return recorded TGI for input C=C1CC[C@@]2(C#N)[C@H]3[C@H](CC[C@@H]2C)[C@@H](C)C[C@@H](CC(C)(C)C#N)[C@H]13
57.9 µM

# return recorded TGI for input CN(C)c1ccc(/C=N/n2c(-c3ccccc3)nc3ccccc3c2=O)cc1
> 100 µM

# return recorded TGI for input CC(=O)OCSc1ncnc2c1ncn2CN1CCOCC1
> 100 µM

# return recorded TGI for input CN1[C@@H]2CCCC[C@H]2N(C)P1(=O)C(O)/C=C/c1ccccc1 (stereo partly specified)
> 100 µM

====

- Test system: SK-MEL-2 melanoma
- Experimental Details: NCI tumour cell line growth inhibition, 48 h
Given measured TGI, output 1 if it is greater than or equal to 30 µM and 0 if not.

Previously resolved entries follow.
Cc1ccccc1CN1CC2=C(CCN(Cc3ccccc3)C2=O)N2CCN=C12 :: 1
COc1ccc(OC)c(C(=O)/C=C/c2cc(O)c(O)cc2F)c1 :: 0
CCN1C(=O)N(CC)C2C1NN=c1s/c(=C3\C(=O)N(CC(C)C)c4ccccc43)c(=O)n12 (configuration not stated) :: 0

--- query ---
Is TGI at least 30 µM? Consider CC1(C)NCCC[C@]2(C)[C@H]3C=CC4=C5C[C@](C)(CO)CC[C@]5(C)CC[C@@]4(C)[C@]3(C)CC[C@@H]12
0

====

- Test system: SK-OV-3 ovarian
- Experimental Details: NCI tumour cell line growth inhibition, 48 h
Listing of recorded TGI by entry.
Numeric only. Scale: µM

# return recorded TGI for input FC(F)(F)c1cccc(COCCN2CCN(Cc3cccc(C(F)(F)F)c3)CC2)c1
31.1

# return recorded TGI for input C/C=C1/CN2[C@@H](C3=C[C@@H]4[C@@H]5N(C3=O)c3ccccc3[C@@]53CCN5C/C(=C/C)[C@@H]4C[C@H]53)C[C@@]34c5ccccc5N5C(=O)CC=C([C@H]1C[C@H]23)[C@H]54
16.8

====

- Tested on: HS 578T breast
- Experimental Details: NCI tumour cell line growth inhibition, 48 h; in the data active = GI50 below about 0.43 µM; inactive = the rest
In this exercise, the only acceptable responses are y (active), n (inactive)

Previously resolved entries follow.
C/C=C(\C)C(=O)N[C@H]1[C@@H](OC(C)=O)C[C@]2(C)C3CC[C@@]4(C)C(CC[C@@H]4C(C)N(C)C)C3CCC2[C@H]1O (some centres undefined) :: n
CC([C@H]1CCC2C3CCC4C[C@@H](NC=O)CC[C@]4(C)C3CC[C@@]21C)N(C)C (some centres undefined) :: n
COc1ccc(CNc2nc3cc(N)cc(N)c3nc2-c2ccccc2)cc1OC :: n

What classification did CC(C)(C)C(=O)Nc1ccccc1I(=O)=O end up with in this test?
n

What classification did COc1ccc2c(c1)nc(N)c1c3cc(OC)c(OC)cc3cn21 end up with in this test?
y

What classification did C[C@@H]1O[C@@H](O[C@@H]2[C@@H](O)[C@H](OCCc3ccc(O)c(O)c3)O[C@H](COC(=O)/C=C/c3ccc(O)c(O)c3)[C@H]2O)[C@H](O)[C@H](O)[C@H]1O end up with in this test?
n
